These entries and their values trace back to patent US5482945A.

Assay: Equilibrium of rapamycin between formed blood elements (FBE), whole blood and plasma in rat blood
Type: in vitro ADME
Conditions: formed blood elements, rapamycin 200 ng/ml, read-out: FBE to plasma ratio
result_type: Kp

The molecule identified as CO[C@H]1C[C@@H]2CC[C@@H](C)[C@@](O)(O2)C(=O)C(=O)N2CCCC[C@H]2C(=O)O[C@H]([C@H](C)C[C@@H]2CC[C@@H](O)[C@H](OC)C2)CC(=O)[C@H](C)/C=C(\C)[C@@H](O)[C@@H](OC)C(=O)[C@H](C)C[C@H](C)/C=C/C=C/C=C/1C [rapamycin] registered its Kp at 0.5

----------
Assay: Equilibrium of rapamycin between formed blood elements (FBE), whole blood and plasma in human blood
Format: in vitro ADME
Conditions: formed blood elements, rapamycin 482 ng/ml, read-out: FBE to plasma ratio
Description: In human blood at rapamycin concentrations between 76 and 189 ng/ml, the whole blood and FBE to plasma ratios after 30 minutes incubation at 37° C. were 12±2 and 23.7±3.9 respectively. Similarly, at a concentration of 482 ng/ml, the ratios were 1.1 and 1.3 respectively. The ratios of whole blood to plasma concentrations in monkeys receiving rapamycin was 10±6 and in humans the ratio was 12±2, and indication that a species difference exists between primates and other mammals.
result_type: Kp
Lab note: jot the number down without any unit.

Note to self: Kp recorded for CO[C@H]1C[C@@H]2CC[C@@H](C)[C@@](O)(O2)C(=O)C(=O)N2CCCC[C@H]2C(=O)O[C@H]([C@H](C)C[C@@H]2CC[C@@H](O)[C@H](OC)C2)CC(=O)[C@H](C)/C=C(\C)[C@@H](O)[C@@H](OC)C(=O)[C@H](C)C[C@H](C)/C=C/C=C/C=C/1C was 1.3
